# test-name: Phase I study CXR1002-001: plasma pharmacokinetics (LC-MS/MS)
# Format: in vivo, human
# assay-conditions: human, plasma, po, 1000 mg, Patient 042, 1000 mg weekly oral dose, Time 696 hr (Day 30); read-out: Concentration (plasma level)
# Text: PK samples, PD (fasting) samples, blood glucose, and blood triglyceride samples, were taken over a 6-week period. Dose limiting toxicity (DLT) will be based on the toxicity assessments over the first 3-week period of the repeat dosing schedule. […]
property: concentration at 696 hr (µM)
Answers are plain numbers, in µM.

[ask] Supply recorded concentration at 696 hr for O=C(O)C(F)(F)C(F)(F)C(F)(F)C(F)(F)C(F)(F)C(F)(F)C(F)(F)F here.
[reply] 1280

----------
# test-name: Phase I study CXR1002-001: plasma pharmacokinetics (LC-MS/MS)
# Assay type: in vivo, human
# assay-conditions: human, plasma, po, 1000 mg, Patient 042, 1000 mg weekly oral dose, Time 864 hr (Day 37); read-out: Concentration (plasma level)
property: concentration at 864 hr (µM)
One number for each entry, in µM.

[ask] Identify concentration at 864 hr associated with the compound O=C(O)C(F)(F)C(F)(F)C(F)(F)C(F)(F)C(F)(F)C(F)(F)C(F)(F)F
[reply] 1250

----------
# test-name: Phase I study CXR1002-001: plasma pharmacokinetics (LC-MS/MS)
# Type: in vivo, human
# assay-conditions: human, plasma, oral, 50 mg, Patient 004 Dose 50 mg; 675 hr; read-out: Concentration
property: concentration at 675 hr

[ask] # return recorded concentration at 675 hr for entry O=C(O)C(F)(F)C(F)(F)C(F)(F)C(F)(F)C(F)(F)C(F)(F)C(F)(F)F
[reply] 61.7 µM

----------
# System: PC3
# test-name: SRB cytotoxicity assay 48 hr
# Assay type: cell-based, human
# assay-conditions: read-out: IC50 Values After 48 Hrs Exposure
property: IC50 (µM)
Give bare numbers, in µM.

[ask] Enter measured IC50, system PC3, for the compound shown: O=C(O)C(F)(F)C(F)(F)C(F)(F)C(F)(F)C(F)(F)C(F)(F)C(F)(F)F [CXR1002]
[reply] 272

----------
# test-name: HT-29 xenograft in nude mice
# Assay type: in vivo, nude mouse
# assay-conditions: nude, mouse, plasma, intraperitoneal, 25 mg/kg; HT-29 model; 24 hrs post last dose; Day 29
# Source text: Animals were inoculated with a tumour cell suspension on each flank and the tumours were allowed to grow for 16 days. These effects are consistent with a transient effect on the liver associated with mild toxicity and reversible liver enlargement. In rodents, this type of effect is usually due to hepatic PPARα activation associated with peroxisome proliferation.
property: concentration at 24 h (µM)
Answers are plain numbers, in µM.

[ask] Please indicate concentration at 24 h recorded for O=C(O)C(F)(F)C(F)(F)C(F)(F)C(F)(F)C(F)(F)C(F)(F)C(F)(F)F
[reply] 277

----------
# test-name: Phase I study CXR1002-001: plasma pharmacokinetics (LC-MS/MS)
# Assay type: in vivo, human
# assay-conditions: human, plasma, po, 1000 mg, Patient 042, 1000 mg weekly oral dose, Time 504 hr (Day 22); read-out: Concentration (plasma level)
property: concentration at 504 hr
Number first, unit second.

[ask] For O=C(O)C(F)(F)C(F)(F)C(F)(F)C(F)(F)C(F)(F)C(F)(F)C(F)(F)F , write its concentration at 504 hr.
[reply] 765 µM
